Experiment: In vivo pharmacokinetic experiment in rats (oral)
Design: species or system SD rats
Conditions: male, SD, rat, plasma, 20 mg/kg
Measured parameter: half-life

Recorded half-life for [2H]C([2H])([2H])N=[S@](C)(=O)c1cc(Cl)c(N)nc1Nc1cc(NC(=O)C2CC2)nnc1C(=O)NC([2H])([2H])[2H] , please?
2.65 h

###

Target: TYK2 (Homo sapiens, UniProt P29597, E957D)
Construct: host or cells: Ba/F3 (murine B lymphocytes)
Sequence (P29597 whole entry E957D): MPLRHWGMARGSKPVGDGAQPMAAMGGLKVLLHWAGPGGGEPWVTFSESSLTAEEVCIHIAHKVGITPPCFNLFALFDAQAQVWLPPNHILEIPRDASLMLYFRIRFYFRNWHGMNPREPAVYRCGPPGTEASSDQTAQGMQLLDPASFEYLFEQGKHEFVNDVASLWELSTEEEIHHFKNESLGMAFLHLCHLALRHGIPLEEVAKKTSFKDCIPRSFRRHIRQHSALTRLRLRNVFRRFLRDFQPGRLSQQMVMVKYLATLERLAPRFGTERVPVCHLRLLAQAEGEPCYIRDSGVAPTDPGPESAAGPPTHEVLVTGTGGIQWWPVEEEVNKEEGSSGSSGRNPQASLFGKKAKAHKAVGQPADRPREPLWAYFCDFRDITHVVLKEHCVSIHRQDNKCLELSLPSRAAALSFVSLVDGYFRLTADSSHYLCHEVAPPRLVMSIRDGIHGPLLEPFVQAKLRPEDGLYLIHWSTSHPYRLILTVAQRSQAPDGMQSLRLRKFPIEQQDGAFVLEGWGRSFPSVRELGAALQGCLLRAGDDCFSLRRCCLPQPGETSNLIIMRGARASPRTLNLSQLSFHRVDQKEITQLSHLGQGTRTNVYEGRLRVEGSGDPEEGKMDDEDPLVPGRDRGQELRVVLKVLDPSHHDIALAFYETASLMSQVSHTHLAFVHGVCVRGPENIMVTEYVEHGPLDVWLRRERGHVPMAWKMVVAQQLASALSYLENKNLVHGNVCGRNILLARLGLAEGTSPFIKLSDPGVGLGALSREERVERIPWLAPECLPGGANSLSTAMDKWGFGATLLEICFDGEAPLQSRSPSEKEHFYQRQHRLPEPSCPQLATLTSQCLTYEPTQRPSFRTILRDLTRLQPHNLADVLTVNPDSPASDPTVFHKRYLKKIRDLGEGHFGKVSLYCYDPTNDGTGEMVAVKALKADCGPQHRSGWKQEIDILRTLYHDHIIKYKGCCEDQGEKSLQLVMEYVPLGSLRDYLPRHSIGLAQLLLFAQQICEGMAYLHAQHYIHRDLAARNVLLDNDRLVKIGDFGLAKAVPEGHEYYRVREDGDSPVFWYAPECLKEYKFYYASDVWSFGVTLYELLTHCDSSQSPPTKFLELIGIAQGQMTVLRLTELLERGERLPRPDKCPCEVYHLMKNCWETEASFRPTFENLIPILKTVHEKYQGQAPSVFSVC
Assay: JAK family kinase selectivity assay, Ba/F3-FL-TYK2-E957D cell proliferation
Format: cell-based
Settings: 72 h
Measured parameter: pIC50
Kindly note that pIC50 refers to -log10 of the concentration in mol/L and answer with the value alone.

* [2H]C([2H])([2H])NC(=O)c1nnc(NC(=O)C2CC2)cc1Nc1nc(N)c(Cl)cc1[S@](C)(=N)=O [Example 29] | 8.96

Moving on to another molecule below.
Recorded pIC50 for [2H]C([2H])([2H])NC(=O)c1nnc(NC(=O)C2CC2)cc1Nc1nc(N)c(Cl)cc1[S@@](C)(=O)=NC [Example 28] , please?
9.22

###

IC50: recorded values
Molecular target: hERG potassium channel (Homo sapiens, UniProt Q12809)
Sequence (Q12809 whole entry): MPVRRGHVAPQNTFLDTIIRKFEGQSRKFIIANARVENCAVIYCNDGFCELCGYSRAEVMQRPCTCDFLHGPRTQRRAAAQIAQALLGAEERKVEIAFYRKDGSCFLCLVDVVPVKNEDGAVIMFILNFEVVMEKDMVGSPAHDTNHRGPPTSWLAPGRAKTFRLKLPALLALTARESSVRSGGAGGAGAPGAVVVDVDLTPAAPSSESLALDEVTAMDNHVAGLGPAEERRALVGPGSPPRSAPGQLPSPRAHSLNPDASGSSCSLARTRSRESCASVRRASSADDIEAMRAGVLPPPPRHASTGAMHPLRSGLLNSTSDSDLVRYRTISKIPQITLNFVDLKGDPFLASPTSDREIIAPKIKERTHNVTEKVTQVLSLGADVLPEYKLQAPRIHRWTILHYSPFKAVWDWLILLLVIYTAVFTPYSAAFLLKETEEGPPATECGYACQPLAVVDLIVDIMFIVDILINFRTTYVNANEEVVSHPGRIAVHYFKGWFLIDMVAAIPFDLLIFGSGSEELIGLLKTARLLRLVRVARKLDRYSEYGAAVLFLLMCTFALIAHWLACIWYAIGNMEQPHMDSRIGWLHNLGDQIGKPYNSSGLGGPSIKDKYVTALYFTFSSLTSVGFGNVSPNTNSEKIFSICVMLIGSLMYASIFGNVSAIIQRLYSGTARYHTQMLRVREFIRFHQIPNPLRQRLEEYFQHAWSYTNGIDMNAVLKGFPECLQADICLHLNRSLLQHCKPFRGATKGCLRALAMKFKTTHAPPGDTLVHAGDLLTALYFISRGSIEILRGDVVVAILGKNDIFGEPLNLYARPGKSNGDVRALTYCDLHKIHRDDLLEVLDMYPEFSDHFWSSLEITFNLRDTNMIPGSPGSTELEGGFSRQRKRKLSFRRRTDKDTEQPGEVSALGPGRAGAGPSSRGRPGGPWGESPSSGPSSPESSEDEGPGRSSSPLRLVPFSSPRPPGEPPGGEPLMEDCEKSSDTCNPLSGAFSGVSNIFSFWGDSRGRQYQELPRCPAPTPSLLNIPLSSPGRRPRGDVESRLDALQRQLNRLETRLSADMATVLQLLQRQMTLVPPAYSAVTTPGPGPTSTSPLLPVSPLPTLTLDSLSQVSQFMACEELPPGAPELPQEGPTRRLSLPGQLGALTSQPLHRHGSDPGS
Assay: hERG potassium channel inhibition assay (CHO-hERG cells, Qpatch automated patch clamp)
Conditions: highest tested concentration 40 μM

- [2H]C([2H])([2H])NC(=O)c1nnc(NC(=O)C2CC2)cc1Nc1nc(N)c(Cl)cc1[S@](C)(=N)=O: > 30 µM

Moving on to another molecule below.
Recorded IC50 for [2H]C([2H])([2H])NC(=O)c1nnc(NC(=O)C2CC2)cc1Nc1nc(N)c(Cl)cc1[S@@](C)(=O)=NC , please?
> 30 µM

###

Assay: In vivo pharmacokinetic experiments in Beagle dogs (oral)
Conditions: male, dog, plasma, 2 mg/kg
Protocol: Experimental Methods: Healthy male Beagle dogs were randomly grouped into 3 […] in each group, and were given the test compounds orally. Before the gavage experiment, the dogs were fasted for 12 h, drank water freely, and were uniformly fed for 4 h after the administration of the drug. […]
MRT: recorded values
Please respond with the number in h and leave the unit unwritten.

• [2H]C([2H])([2H])NC(=O)c1nnc(NC(=O)C2CC2)cc1Nc1nc(N)c(Cl)cc1[S@@](C)(=O)=NC [Example 28] = 10.7

Recorded MRT for [2H]C([2H])([2H])NC(=O)c1nnc(NC(=O)C2CC2)cc1Nc1nc(N)c(Br)cc1[S@@](C)(=O)=NC [Example 30] , please?
11.8

###

Assay: In vivo pharmacokinetic experiment in rats (oral)
Design: species or system SD rats
Details: male, SD, rat, plasma, 20 mg/kg
Measured parameter: Cmax (µg/mL)
Please respond with the number in µg/mL and leave the unit unwritten.

Recorded Cmax for [2H]C([2H])([2H])N=[S@](C)(=O)c1cc(Cl)c(N)nc1Nc1cc(NC(=O)C2CC2)nnc1C(=O)NC([2H])([2H])[2H] , please?
2.95

###

Molecular target: TYK2 (Homo sapiens, UniProt P29597, E957D)
Construct: host or cells: Ba/F3 (murine B lymphocytes)
Test: TYK2 kinase activity inhibition assay (Ba/F3-FL-TYK2-E957D cell proliferation, CellTiter-Glo)
Type: cell-based
Settings: 72 h
Measured parameter: IC50 (nM)
Please respond with the number in nM and leave the unit unwritten.

Consider the following illustrative entries.
- [2H]C([2H])([2H])N=[S@](C)(=O)c1cc(Cl)c(N)nc1Nc1cc(NC(=O)C2CC2)nnc1C(=O)NC([2H])([2H])[2H]: 0.4
- [2H]C([2H])([2H])NC(=O)c1nnc(NC(=O)C2CC2)cc1Nc1ncccc1S(C)(=O)=NC (centres unmarked): 2.4
- CN=S(C)(=O)c1cc2c(Cl)c(Cl)[nH]c2nc1Nc1cc(NC(=O)C2CC2)nnc1C(=O)NC (centres unmarked): 1.2

Recorded IC50 for CN=S(C)(=O)c1cc(OCCCOC)cnc1Nc1cc(NC(=O)C2CC2)nnc1C(=O)NC (centres unmarked) , please?
3.5

Recorded IC50 for CN=S(C)(=O)c1cc(Cl)c(N)nc1Nc1cc(NC(=O)C2CC2)nnc1C(=O)NC (centres unmarked) , please?
2

Recorded IC50 for [2H]C([2H])([2H])N=[S@](C)(=O)c1cc(C=C)c(N)nc1Nc1cc(NC(=O)C2CC2)nnc1C(=O)NC([2H])([2H])[2H] , please?
0.3

Recorded IC50 for [2H]C([2H])([2H])N=[S@](C)(=O)c1cc(C#CC)c(N)nc1Nc1cc(NC(=O)C2CC2)nnc1C(=O)NC([2H])([2H])[2H] , please?
0.1

Recorded IC50 for CN=S(C)(=O)c1cc2cc[nH]c2nc1Nc1cc(NC(=O)C2CC2)nnc1C(=O)NC (centres unmarked) , please?
1.1

Recorded IC50 for CN=S(C)(=O)c1cc(Br)c(N)nc1Nc1cc(NC(=O)C2CC2)nnc1C(=O)NC (centres unmarked) , please?
1.3

Recorded IC50 for CN=S(C)(=O)c1cc2c(Cl)c[nH]c2nc1Nc1cc(NC(=O)C2CC2)nnc1C(=O)NC (centres unmarked) , please?
0.62

Recorded IC50 for CN=S(C)(=O)c1cc(OC)cnc1Nc1cc(NC(=O)C2CC2)nnc1C(=O)NC (centres unmarked) , please?
3.7

Recorded IC50 for [2H]C([2H])([2H])N=[S@](C)(=O)c1cc(Br)c(N)nc1Nc1cc(NC(=O)C2CC2)nnc1C(=O)NC([2H])([2H])[2H] , please?
0.4

Recorded IC50 for [2H]C([2H])([2H])N=[S@](C)(=O)c1cc(I)c(N)nc1Nc1cc(NC(=O)C2CC2)nnc1C(=O)NC([2H])([2H])[2H] , please?
0.4

Recorded IC50 for [2H]C([2H])([2H])NC(=O)c1nnc(NC(=O)C2CC2)cc1Nc1nc(N)c(Cl)cc1[S@](C)(=N)=O , please?
1.1

###

Test: In vivo pharmacokinetic experiments in Beagle dogs (oral)
Details: male, dog, plasma, 2 mg/kg
Measured parameter: half-life (h)
Please respond with the number in h and leave the unit unwritten.

* [2H]C([2H])([2H])NC(=O)c1nnc(NC(=O)C2CC2)cc1Nc1nc(N)c(Cl)cc1[S@@](C)(=O)=NC [Example 28] | 7.26

Moving on to another molecule below.
Recorded half-life for [2H]C([2H])([2H])NC(=O)c1nnc(NC(=O)C2CC2)cc1Nc1nc(N)c(Br)cc1[S@@](C)(=O)=NC [Example 30] , please?
8.61

###

Test: In vivo pharmacokinetic experiments in Beagle dogs (oral)
Details: male, dog, plasma, 10 mg/kg
Measured parameter: MRT (h)
Please respond with the number in h and leave the unit unwritten.

Recorded MRT for [2H]C([2H])([2H])N=[S@](C)(=O)c1cc(Cl)c(N)nc1Nc1cc(NC(=O)C2CC2)nnc1C(=O)NC([2H])([2H])[2H] , please?
12.7

###

Experiment: In vivo pharmacokinetic experiment in rats (oral)
Set-up: species or system SD rats
Conditions: male, SD, rat, plasma, 20 mg/kg
Measured parameter: MRT (h)
Please respond with the number in h and leave the unit unwritten.

Recorded MRT for [2H]C([2H])([2H])N=[S@](C)(=O)c1cc(Cl)c(N)nc1Nc1cc(NC(=O)C2CC2)nnc1C(=O)NC([2H])([2H])[2H] [Example 40] , please?
4.7

###

Target: TYK2 (Homo sapiens, UniProt P29597, E957D)
Construct: host or cells: Ba/F3 (murine B lymphocytes)
Experiment: TYK2 kinase activity inhibition assay (Ba/F3-FL-TYK2-E957D cell proliferation, CellTiter-Glo)
Format: cell-based
Conditions: 72 h
Measured parameter: pIC50
Kindly note that pIC50 refers to -log10 of the concentration in mol/L and answer with the value alone.

Consider the following illustrative entries.
- [2H]C([2H])([2H])N=[S@](C)(=O)c1cc(C#CC2CC2)c(N)nc1Nc1cc(NC(=O)C2CC2)nnc1C(=O)NC([2H])([2H])[2H] [Example 46]: 10.00
- CN=S(C)(=O)c1cc(Br)cnc1Nc1cc(NC(=O)C2CC2)nnc1C(=O)NC (stereo not shown) [Example 13]: 8.41
- [2H]C([2H])([2H])NC(=O)c1nnc(NC(=O)C2CC2)cc1Nc1nc(N)c(Cl)cc1[S@@](C)(=O)=NC [Example 28]: 9.22

Moving on to another compound below.
Recorded pIC50 for [2H]C([2H])([2H])N=[S@](C)(=O)c1cc(C2CC2)c(N)nc1Nc1cc(NC(=O)C2CC2)nnc1C(=O)NC([2H])([2H])[2H] [Example 43] , please?
8.96

###

Assay: In vivo pharmacokinetic experiments in Beagle dogs (oral)
Settings: male, dog, plasma, 10 mg/kg
Measured parameter: half-life (h)
Please respond with the number in h and leave the unit unwritten.

Recorded half-life for [2H]C([2H])([2H])N=[S@](C)(=O)c1cc(Cl)c(N)nc1Nc1cc(NC(=O)C2CC2)nnc1C(=O)NC([2H])([2H])[2H] , please?
9.28
